From: patent US20240092761A1

- TARGET: CDK6/Cyclin D3 (Homo sapiens (Human), UniProt Q00534)
- Sequence (Q00534 whole entry): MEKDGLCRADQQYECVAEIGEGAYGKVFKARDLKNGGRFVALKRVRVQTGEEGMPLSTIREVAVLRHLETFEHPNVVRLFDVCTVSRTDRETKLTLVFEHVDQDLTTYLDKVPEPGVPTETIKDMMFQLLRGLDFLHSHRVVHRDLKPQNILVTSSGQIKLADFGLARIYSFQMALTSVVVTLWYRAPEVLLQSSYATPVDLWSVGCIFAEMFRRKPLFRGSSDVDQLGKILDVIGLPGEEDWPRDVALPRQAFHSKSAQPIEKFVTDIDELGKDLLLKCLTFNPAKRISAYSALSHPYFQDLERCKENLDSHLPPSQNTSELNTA
- Sequence (P30281 whole entry partner): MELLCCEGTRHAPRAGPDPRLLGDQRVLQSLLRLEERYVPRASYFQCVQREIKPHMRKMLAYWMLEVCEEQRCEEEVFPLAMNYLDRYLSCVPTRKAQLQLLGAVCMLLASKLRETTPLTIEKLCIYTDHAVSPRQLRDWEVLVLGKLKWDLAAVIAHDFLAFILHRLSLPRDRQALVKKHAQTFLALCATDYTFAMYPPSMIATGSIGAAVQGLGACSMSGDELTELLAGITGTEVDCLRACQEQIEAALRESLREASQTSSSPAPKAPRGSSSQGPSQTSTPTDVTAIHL
- MEASUREMENT PROTOCOL: CDK6/Cyclin D3 ADP-Glo Kinase Assay
- PARTICULARS: 100 uM ATP, read-out: CDK6/ CyclinD3 IC50
Reported IC50 values are given for each entry in this list.

Here are 5 molecules together with their reported answers.
molecule=CC(=O)N1CC2(CCN(c3cccc4cnc(NC5CCN(S(C)(=O)=O)CC5)nc34)C2)C1 target="CDK6/Cyclin D3 (Homo sapiens (Human), UniProt Q00534)" reported_metric=IC50 observed="500 to 2000 nM"
molecule=O=S(=O)(CC1CCC1)N1CCC(Nc2ncc3cc(C(F)F)cc(N4CC5(CCNC5)C4)c3n2)CC1 target="CDK6/Cyclin D3 (Homo sapiens (Human), UniProt Q00534)" reported_metric=IC50 observed="< 200 nM"
molecule=CS(=O)(=O)N1CCC(Nc2ncc3cc(C(F)F)cc(N4CC5(CCNCC5(F)F)C4)c3n2)CC1 target="CDK6/Cyclin D3 (Homo sapiens (Human), UniProt Q00534)" reported_metric=IC50 observed="< 200 nM"
molecule="CS(=O)(=O)N1CCC(Nc2ncc3cccc(N4CCC(C#N)(C5CC5)C4)c3n2)CC1 (stereo not shown)" target="CDK6/Cyclin D3 (Homo sapiens (Human), UniProt Q00534)" reported_metric=IC50 observed="< 200 nM"
molecule=O=S(=O)(CC1CC1)N1CCC(Nc2ncc3cc(C(F)F)cc(N4CC5(CCNC5)C4)c3n2)CC1 target="CDK6/Cyclin D3 (Homo sapiens (Human), UniProt Q00534)" reported_metric=IC50 observed="< 200 nM"

Ask: // lookup IC50 for `CCN1CC2(C1)CN(c1ccc(Nc3ncc4cccc(N5CC6(CC(O)C6)C5)c4n3)nc1)C2`
Result: < 200 nM

Ask: And what about the molecule `CS(=O)(=O)N1CCC(Nc2ncc3cccc(N4CC(F)(F)C5(CNC5)C4)c3n2)CC1` ?
Result: < 200 nM

Ask: And what about the molecule CS(=O)(=O)N1CCC(Nc2ncc3cc(C(F)F)cc(C4CC5(CCN(CC(F)(F)CO)C5)C4)c3n2)CC1 (stereo not shown) ?
Result: < 200 nM

Ask: And what about the molecule CS(=O)(=O)N1CCC(Nc2ncc3cccc(C4CC(O)(C(F)F)C4)c3n2)CC1 (stereo not shown) ?
Result: < 200 nM

Ask: And what about the molecule `CC1(CCS(=O)(=O)N2CCC(Nc3ncc4cc(C(F)F)cc(N5CC6(CCNC6)C5)c4n3)CC2)CC1` ?
Result: < 200 nM

Ask: And what about the molecule CN1C[C@@H]2C(Nc3ncc4cc(C(F)F)cc(N5CCC6(CCN(S(C)(=O)=O)C6)C5)c4n3)[C@@H]2C1 (stereo partly shown) ?
Result: > 2000 nM

----------
Reported pIC50 values are given for each entry in this list.
- TARGET: CDK2/Cyclin E1 full length (Homo sapiens (Human))
- MEASUREMENT PROTOCOL: CDK2/Cyclin E1 Full Length ADP-Glo Kinase Assay
- Format: biochemical
- PARTICULARS: 20 uM ATP, read-out: CDK2/ CyclinE1 IC50
pIC50: −log10 of the molar value.

Here are 3 compounds together with their reported answers.
compound=CS(=O)(=O)N1CCC(Nc2ncc3cccc(N4CCC5(COC5)C4)c3n2)CC1 observed="> 6.70"
compound=CS(=O)(=O)N1CCC(Nc2ncc3cccc(N4CCCC5(COC5)C4)c3n2)CC1 observed="6.30 to 6.70"
compound=CN1Cc2ccc(Nc3ncc4cc(C(F)F)cc(N5CCC6(CN(C)C6)C5)c4n3)cc2C1 observed="> 6.70"

Ask: // lookup pIC50 for `CS(=O)(=O)N1CCC(Nc2ncc3cccc(N4CCOC5(CC5)C4)c3n2)CC1`
Result: 6.30 to 6.70

Ask: And what about the compound CC(C)(F)CN1CCC2(CC(c3cc(C(F)F)cc4cnc(NC5CCN(S(C)(=O)=O)CC5)nc34)C2)C1 (centres unmarked) ?
Result: > 6.70

Ask: And what about the compound `CC1(CS(=O)(=O)N2CCC(Nc3ncc4cc(C(F)F)cc(N5CC6(CCNC6)C5)c4n3)CC2)CC1` ?
Result: > 6.70

Ask: And what about the compound CC(=O)N1CCC2(CCN(c3c(F)ccc4cnc(NC5CCN(S(C)(=O)=O)CC5)nc34)C2)C1 (centres unmarked) ?
Result: > 6.70

Ask: And what about the compound `CS(=O)(=O)N1CCC(Nc2ncc3cc(C(F)F)cc(N4CC5(C4)CN(C4CC4)C5)c3n2)CC1` ?
Result: > 6.70

Ask: And what about the compound `CN1CC2(CCN(c3cccc4cnc(Nc5ccc(N6CC7(COC7)C6)cn5)nc34)C2)C1` ?
Result: < 5.70

Ask: And what about the compound `CS(=O)(=O)N1CCC(Nc2ncc3cc(C(F)F)cc(N4CC5(CCNCC5(F)F)C4)c3n2)CC1` ?
Result: > 6.70

Ask: And what about the compound `O=S(=O)(C1CC1)N1CCC(Nc2ncc3cc(C(F)F)cc(N4CC5(CNCCO5)C4)c3n2)CC1` ?
Result: > 6.70

Ask: And what about the compound CN1CC2(CCC1=O)CCN(c1cccc3cnc(NC4CCN(S(C)(=O)=O)CC4)nc13)C2 (centres unmarked) ?
Result: 5.70 to 6.30

Ask: And what about the compound `CCN(CC)C1CCN(c2cccc3cnc(NC4CCN(S(C)(=O)=O)CC4)nc23)CC1` ?
Result: > 6.70

Ask: And what about the compound CS(=O)(=O)N1CCC(Nc2ncc3cccc(N4CCC(C#N)(C5CC5)C4)c3n2)CC1 (centres unmarked) ?
Result: > 6.70

Ask: And what about the compound CS(=O)(=O)N1CCC(Nc2ncc3cccc(N4CCC5(CCC(F)(F)C5)C4)c3n2)CC1 (centres unmarked) ?
Result: > 6.70

Ask: And what about the compound CS(=O)(=O)N1CCC(Nc2ncc3cccc(N4CCC5(CCN(S(C)(=O)=O)C5)C4)c3n2)CC1 (centres unmarked) ?
Result: > 6.70

Ask: And what about the compound `CS(=O)(=O)N1CCC(Nc2ncc3cccc(N4CC5CC(C4)O5)c3n2)CC1` ?
Result: > 6.70

Ask: And what about the compound FC(F)c1cc(N2CCC3(C2)CC3(F)F)c2nc(NC3[C@H]4CNC[C@@H]34)ncc2c1 (some centres unmarked) ?
Result: < 5.70

Ask: And what about the compound `CCN1CC2(C1)CN(c1ccc(Nc3ncc4cccc(N5CC6(CCS6(=O)=O)C5)c4n3)nc1)C2` ?
Result: < 5.70

Ask: And what about the compound CS(=O)(=O)N1CCC(Nc2ncc3cc(C(F)F)cc(C4CC5(CCN(C6COC6)C5)C4)c3n2)CC1 (centres unmarked) ?
Result: > 6.70

----------
Reported pIC50 values are given for each entry in this list.
- Test system: OVCAR-3 cells
- MEASUREMENT PROTOCOL: Cell Growth Inhibition, OVCAR-3 (CellTiterGlo, 6 days)
- Assay type: cell-based
- PARTICULARS: Homo sapiens, 144 h; OVCAR-3, 6-day treatment, CellTiterGlo 2.0
pIC50: −log10 of the molar value.

compound=CS(=O)(=O)N1CCC(Nc2ncc3cccc(N4CC(CC#N)C4)c3n2)CC1 reported_metric=pIC50 observed="< 5.70"
compound="CC(=O)N1CCC2(CCN(c3cccc4cnc(Nc5ccc(N6CC7(C6)CC(F)(F)C7)cn5)nc34)C2)C1 (stereo not drawn)" reported_metric=pIC50 observed="< 5.70"
compound=O=S(=O)(N1CCC(Nc2ncc3cccc(N4CC5(CNCCC5(F)F)C4)c3n2)CC1)C1(C(F)F)CC1 reported_metric=pIC50 observed="< 5.70"

Ask: // lookup pIC50 for CC(=O)N1CCC2(CCN(c3c(F)ccc4cnc(NC5CCN(S(C)(=O)=O)CC5)nc34)C2)C1 (stereo not drawn)
Result: < 5.70

Ask: And what about the compound `CN1CCc2cc(Nc3ncc4cc(C(F)F)cc(N5CC6(C5)CN(C5CC5)C6)c4n3)ccc2C1` ?
Result: 5.70 to 6.30

----------
- TARGET: CDK1/Cyclin B1 (Homo sapiens (Human))
- Sequence (P06493 whole entry): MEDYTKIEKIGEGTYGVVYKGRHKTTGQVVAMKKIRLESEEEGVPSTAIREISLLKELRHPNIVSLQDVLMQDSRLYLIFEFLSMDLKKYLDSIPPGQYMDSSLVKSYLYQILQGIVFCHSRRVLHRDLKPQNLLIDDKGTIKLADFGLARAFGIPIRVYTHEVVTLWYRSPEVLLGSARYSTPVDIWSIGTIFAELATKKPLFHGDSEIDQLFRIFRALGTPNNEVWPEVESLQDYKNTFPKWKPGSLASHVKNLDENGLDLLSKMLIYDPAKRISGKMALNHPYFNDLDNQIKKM
- Sequence (P14635 whole entry partner): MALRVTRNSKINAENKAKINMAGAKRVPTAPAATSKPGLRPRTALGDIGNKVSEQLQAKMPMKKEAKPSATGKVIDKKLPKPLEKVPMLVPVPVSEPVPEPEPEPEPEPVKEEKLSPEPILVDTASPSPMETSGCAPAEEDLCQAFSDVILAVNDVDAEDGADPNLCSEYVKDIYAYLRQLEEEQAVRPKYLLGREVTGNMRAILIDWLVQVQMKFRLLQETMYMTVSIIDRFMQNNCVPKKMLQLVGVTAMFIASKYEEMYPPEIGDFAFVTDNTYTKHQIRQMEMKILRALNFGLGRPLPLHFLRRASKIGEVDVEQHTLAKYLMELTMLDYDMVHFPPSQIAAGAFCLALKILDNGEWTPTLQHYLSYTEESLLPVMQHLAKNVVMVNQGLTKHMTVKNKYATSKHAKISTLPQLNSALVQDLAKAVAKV
- MEASUREMENT PROTOCOL: CDK1/Cyclin B1 ADP-Glo Kinase Assay
- PARTICULARS: 80 uM ATP
Reported IC50 values are given for each entry in this list.

molecule="CN1CCc2cc(Nc3ncc4cc(C(F)F)cc(N5CC6(C5)CN(C5CC5)C6)c4n3)ccc2C1 [Example 79]" reported_metric=IC50 observed="> 2 µM"
molecule="CS(=O)(=O)N1CCC(Nc2ncc3cccc(N4CCN(S(C)(=O)=O)CC4)c3n2)CC1 [Example 12]" reported_metric=IC50 observed="> 2 µM"
molecule="CS(=O)(=O)N1CCC(Nc2ncc3cccc(N4CCC5(CCC(F)(F)CC5)C4)c3n2)CC1 [Example 28]" reported_metric=IC50 observed="> 2 µM"

Ask: Hello, I am looking for reported IC50 with CDK1/Cyclin B1 (Homo sapiens (Human)) for CS(=O)(=O)N1CCC(Nc2ncc3cccc(N4CC5(CC(O)C5)C4)c3n2)CC1 [Example 18] . Could you help?
Result: < 0.2 µM

Ask: And what about the molecule FC(F)c1cc(N2CC3(CCNC3)C2)c2nc(NC3CCN(c4ncc(C5CC5)cn4)CC3)ncc2c1 [Example 68] ?
Result: < 0.2 µM

Ask: And what about the molecule CS(=O)(=O)N1CCC(Nc2ncc3cccc(N4CC5(CCS5(=O)=O)C4)c3n2)CC1 [Example 19] ?
Result: 0.2 to 0.5 µM

Ask: And what about the molecule CN1CC2(CCN(c3cc(C(F)F)cc4cnc(NC5CCN(S(=O)(=O)C6(C)CC6)CC5)nc34)C2)C1 [Example 83] ?
Result: 0.2 to 0.5 µM

Ask: And what about the molecule CN1CC(n2cc(Nc3ncc4cc(C(F)F)cc(N5CC6(CN(C)C6)C5)c4n3)cn2)C1 [Example 59] ?
Result: > 2 µM

Ask: And what about the molecule COC1CC2(C1)CC(c1cc(C(F)F)cc3cnc(NC4CCN(S(C)(=O)=O)CC4)nc13)C2 (centres unmarked) [Example 108] ?
Result: < 0.2 µM
